B1: TOR1AIP2 (parent)
chain: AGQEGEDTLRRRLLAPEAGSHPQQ

variants of: B1; assay: protein stability index of a GFP-peptide fusion (GPS, HEK-293T) (PSI 1-6); higher = more stable; conditions: c terminus: a fixed tail appended;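 note: lentivirally expressed fusions sorted by FACS into six bins by GFP to DsRed ratio, PSI derived from sequencing read proportions per bin multiplied by bin number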
Note that class boundaries on protein stability index are bin A: < 2; bin B: ≥ 2 and < 3; bin C: ≥ 3

entry_sequence="AGQWGEDTLRRRLLAPEAGSHPQQ [E4W]" assigned_class="bin B"
entry_sequence="AGQEGEDMLRRRLLAPEAGSHPQQ [T8M]" assigned_class="bin B"
entry_sequence="AGQEGEDTLRRRLKAPEAGSHPQQ [L14K]" assigned_class="bin C"
entry_sequence="AGQEGEDTLRRRLLAPEAGRHPQQ [S20R]" assigned_class="bin B"
entry_sequence="AGQEGEDDLRRRLLAPEAGSHPQQ [T8D]" assigned_class="bin C"

Data request: // return the class label for ANQEGEDTLRRRLLAPEAGSHPQQ [G2N]
Data returned: bin C

Data request: Hi, small favor: classify AGQEGEDTLRRDLLAPEAGSHPQQ [R12D] by its protein stability index when you get a moment.
Data returned: bin C

Data request: Band for the recorded protein stability index of AGQEGEDKLRRRLLAPEAGSHPQQ [T8K] ?
Data returned: bin C

Data request: Form field 'band' for AGQEGEDTLRRRLLAPEAQSHPQQ [G19Q]
Data returned: bin B

Data request: Into which bin does this variant go? AGQEGEDTLRQRLLAPEAGSHPQQ [R11Q]
Data returned: bin C

Data request: Band for AGQEGEDTLRRQLLAPEAGSHPQQ [R12Q] ?
Data returned: bin B

Data request: Band for the recorded protein stability index of AGQEGEDTLRRRLLAPEAGMHPQQ [S20M] ?
Data returned: bin B

Data request: Each variant maps to one class by protein stability index. Which class for AGQEGEDTLRRRNLAPEAGSHPQQ [L13N] ?
Data returned: bin C

Data request: Which protein stability index category applies to AGQEGEDTSRRRLLAPEAGSHPQQ [L9S] here?
Data returned: bin C

Data request: Which band does AGQEGEDTLRRRLLAPAAGSHPQQ [E17A] fall in?
Data returned: bin C

Data request: Into which category would you place AGQEGHDTLRRRLLAPEAGSHPQQ [E6H] ?
Data returned: bin B

Data request: Band for the recorded protein stability index of AGQEGEDTLRRRLLAPEAGSHTQQ [P22T] ?
Data returned: bin A

Data request: Determine which band this variant sits in: AGQEGEDTLLRRLLAPEAGSHPQQ [R10L]
Data returned: bin C

Data request: Which class holds AGQEGEDTLRRRLLAPEAGSHWQQ [P22W] ?
Data returned: bin A

Data request: Which protein stability index category applies to AGQEGEDTLRRRLLAPEAFSHPQQ [G19F] here?
Data returned: bin A

Data request: Band for the recorded protein stability index of AGQEGEDTLRRRLLAPEAYSHPQQ [G19Y] ?
Data returned: bin A
